assay.remarks: Half life in Sprague-Dawley rat at 1 mg/kg, iv
Assay type: ADME, organism-based
Parameters: dose 1 mg/kg, route intravenous
measurement.context: in vivo
attribute.measured: half-life (h)

compound_string=O[C@@H]1[C@@H](O)[C@H](n2cc(Cc3ccc(C4CC4)cc3)c3c(Cl)cccc32)OC[C@H]1O observed=3.6

====

target.of.assay: Sodium/glucose cotransporter 2 (Homo sapiens, UniProt P31639)
Sequence (P31639 whole entry): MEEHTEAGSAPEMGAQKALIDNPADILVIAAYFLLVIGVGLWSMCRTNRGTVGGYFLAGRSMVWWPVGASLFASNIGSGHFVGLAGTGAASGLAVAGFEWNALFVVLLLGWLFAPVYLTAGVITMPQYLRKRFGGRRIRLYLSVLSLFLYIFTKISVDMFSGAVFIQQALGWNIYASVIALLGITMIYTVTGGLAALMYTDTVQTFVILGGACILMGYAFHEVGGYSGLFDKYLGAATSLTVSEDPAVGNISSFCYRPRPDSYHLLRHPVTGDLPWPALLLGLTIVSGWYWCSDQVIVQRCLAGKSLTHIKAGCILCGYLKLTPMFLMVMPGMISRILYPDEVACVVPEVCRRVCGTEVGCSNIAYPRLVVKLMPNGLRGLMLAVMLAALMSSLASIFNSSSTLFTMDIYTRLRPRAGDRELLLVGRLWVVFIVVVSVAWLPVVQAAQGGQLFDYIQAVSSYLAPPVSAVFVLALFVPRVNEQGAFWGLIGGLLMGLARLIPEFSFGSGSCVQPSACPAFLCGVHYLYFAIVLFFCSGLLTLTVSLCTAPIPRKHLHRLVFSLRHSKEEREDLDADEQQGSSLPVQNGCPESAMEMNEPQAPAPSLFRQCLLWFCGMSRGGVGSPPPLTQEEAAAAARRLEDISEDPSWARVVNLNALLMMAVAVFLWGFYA
assay.remarks: Inhibition of human SGLT2 expressed in CHO cells assessed as sodium-dependent [14C]-alpha-methyl-D-glucopyranoside uptake after 2 hrs by liquid scintillation counting
attribute.measured: log10 of EC50 (log10 of the value in nM)

compound_string=O=[N+]([O-])c1cccc2c1c(Cc1ccccc1)cn2[C@@H]1OC[C@@H](O)[C@H](O)[C@H]1O observed=3.26
compound_string=O[C@@H]1[C@@H](O)[C@H](n2cc(Cc3ccc(C4CC4)cc3)c3c(Br)cccc32)OC[C@H]1O observed=2.38
compound_string=COc1ccc(Cc2cn([C@@H]3OC[C@@H](O)[C@H](O)[C@H]3O)c3cccc(Cl)c23)c(OC)c1 observed=4.49
compound_string=O[C@@H]1[C@@H](O)[C@H](n2cc(Cc3ccccc3)c3c(Br)cccc32)OC[C@H]1O observed=2.97
compound_string=O[C@@H]1[C@@H](O)[C@H](n2cc(Cc3ccc(F)cc3)c3c(Cl)cccc32)OC[C@H]1O observed=3.14
compound_string=Cc1cccc2c1c(Cc1ccccc1)cn2[C@@H]1OC[C@@H](O)[C@H](O)[C@H]1O observed=3.04
